In this section, each of the compounds is paired with its reported inhibition.
Target: Tyrosine-protein kinase Srms (Homo sapiens);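 further: reported value is a mean of the inhibition readings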
Conditions: at 0.1 µM
Report field: quantity (unit follows the number).

Please review the following examples before continuing.
## Input Given COC(=O)Nc1nc2cc(Oc3ccc(NC(=O)Nc4cccc(C(=O)O)c4)cc3)ccc2[nH]1 , state its recorded inhibition.
## Output 0.44%

## Input Given COC(=O)Nc1nc2cc(Oc3cccc(NC(=O)Nc4cc(C(F)(F)F)ccc4F)c3)ccc2[nH]1 , state its recorded inhibition.
## Output 0.35%

## Input Given NC(=O)c1cccc(Nc2nccc(Nc3cccc4[nH]ncc34)n2)c1 , state its recorded inhibition.
## Output 8.24%

Next, consider the following compound.
## Input Given O=C1Nc2ccc(C(=O)c3ccco3)cc2C1=Cc1cc(Cl)c(O)c(Cl)c1 , state its recorded inhibition.
## Output 21.3%
